test system: OCI-AML2; assay: cell viability relative to vehicle control; higher = less cytotoxic; conditions: 10 µM; SRSF2 genotype: wt/wt;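 note: after 48 h exposure read by CellTiter-Glo luminescence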
Where a name gives a salt, the structure may show the parent alone.
measured attribute: cell viability (%)

compound: CONC(=O)c1ccccc1Nc1cc(Nc2cc(C)nn2C(C)C)ncc1Cl
measured attribute: cell viability
unit text: %
recorded result: 103
--
compound: COc1cc2nccc(Oc3ccc(NC(=O)NC4CC4)c(Cl)c3)c2cc1C(N)=O
measured attribute: cell viability
unit text: %
recorded result: 56.1
--
compound: CNCc1ccc(-c2[nH]c3cc(F)cc4c3c2CCNC4=O)cc1
measured attribute: cell viability
unit text: %
recorded result: 55.8
--
compound: CC1=CC(=O)c2ccccc2C1=O
measured attribute: cell viability
unit text: %
recorded result: 12.8
--
compound: CC[C@H]1OC(=O)[C@H](C)[C@@H](O[C@H]2C[C@@](C)(OC)[C@@H](O)[C@H](C)O2)[C@H](C)[C@@H](O[C@@H]2O[C@H](C)C[C@H](N(C)C)[C@H]2O)[C@](C)(O)C[C@@H](C)/C(=N\OCOCCOC)[C@H](C)[C@@H](O)[C@]1(C)O [Roxithromycin (Roxl-150)]
measured attribute: cell viability
unit text: %
recorded result: 105
--
compound: CC(=O)/N=c1/sc(S(N)(=O)=O)nn1C [Methazolamide]
measured attribute: cell viability
unit text: %
recorded result: 105
--
compound: CCOCC(O)COc1ccc(NC(=O)CC[S+](C)C)cc1 (stereo not drawn) [Suplatast tosylate]
measured attribute: cell viability
unit text: %
recorded result: 110
--
compound: Nc1nc(Nc2ccc(S(N)(=O)=O)cc2)nn1C(=O)c1c(F)cccc1F
measured attribute: cell viability
unit text: %
recorded result: 12
--
compound: CC(=O)O[C@H]1C(=O)[C@@]2(C)[C@H]([C@H](OC(=O)c3ccccc3)[C@]3(O)C[C@H](OC(=O)[C@H](O)[C@@H](NC(=O)c4ccccc4)c4ccccc4)C(C)=C1C3(C)C)[C@]1(OC(C)=O)CO[C@@H]1C[C@@H]2O [7-Epitaxol]
measured attribute: cell viability
unit text: %
recorded result: 12.1
--
compound: CSCC1CN(/N=C/c2ccc([N+](=O)[O-])o2)C(=O)O1 (stereo not drawn)
measured attribute: cell viability
unit text: %
recorded result: 87.3
--
compound: CN(C)CCCN1c2ccccc2Sc2ccc(Cl)cc21 [Chlorpromazine HCl]
measured attribute: cell viability
unit text: %
recorded result: 28.6
--
compound: CCOC(=O)OC(C)OC1=C(C(=O)Nc2ccccn2)N(C)S(=O)(=O)c2ccccc21 (stereo not drawn)
measured attribute: cell viability
unit text: %
recorded result: 96
--
compound: CC[C@H]1OC(=O)[C@H](C)[C@@H](O[C@H]2C[C@@](C)(OC)[C@@H](O)[C@H](C)O2)[C@H](C)[C@@H](O[C@@H]2O[C@H](C)C[C@H](N(C)C)[C@H]2O)[C@](C)(O)C[C@@H](C)C(=O)[C@H](C)[C@@H](O)[C@]1(C)O
measured attribute: cell viability
unit text: %
recorded result: 103
